- Measured on: TREM2 extracellular domain (ECD) (residues 19-131, C-terminally biotinylated, deglycosylated or glycosylated) (Homo sapiens)
- Sequence (Q9NZC2 19-131): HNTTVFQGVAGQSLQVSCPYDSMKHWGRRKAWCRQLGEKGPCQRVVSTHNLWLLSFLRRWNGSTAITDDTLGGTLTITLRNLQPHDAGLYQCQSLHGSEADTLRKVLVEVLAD
- Measurement description: biochemical;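 note: Bio-layer interferometry in 50 mM HEPES pH 7.5 with 150 mM NaCl and 0.1% Tween, double-referenced with blank wells and unrelated-protein sensors, equilibrium response fitted versus concentration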
- Assay context: Human BLI (Kd; nM) (deglycosylated), Table 4A; deglycosylated human TREM2 ECD; steady-state KD, 25° C.
*1 amine or outer side, *2 acyl side, *3 side chain or, on linkers, in order; H or OH if unused. Where a SMILES comes first, the peptide text is derived from it. Bridges are numbered along the chain shown (N, C = ends). TATA = O=C(CC[*:1])N1CN(C(=O)CC[*:2])CN(C(=O)CC[*:3])C1
Quantity measured: Kd (nM)
Numbers only here, please. The scale is nM.

Could you tell me which Kd is on file for CC(=O)N[C@H]1CSCCC(=O)N2CN3CN(C2)C(=O)CCSC[C@H](NC(=O)[C@H](Cc2ccc(O)cc2)NC(=O)[C@H](CCC(=O)O)NC(=O)[C@H](CO)NC1=O)C(=O)N[C@@H](Cc1ccccc1)C(=O)N[C@@H](Cc1c[nH]c2ccccc12)C(=O)N1CCC[C@H]1C(=O)N[C@@H](Cc1ccccc1)C(=O)N[C@@H](Cc1ccc(O)cc1)C(=O)N[C@@H](Cc1c[nH]cn1)C(=O)N[C@H](C(N)=O)CSCCC3=O [BCY18217, Ac-(SEQ ID NO: 1)] ? 900

Subsequent entry: C[C@H](N)C(=O)N[C@H]1CSCCC(=O)N2CN3CN(C2)C(=O)CCSC[C@H](NC(=O)[C@H](Cc2ccc(O)cc2)NC(=O)[C@H](CCC(=O)O)NC(=O)[C@H](C)NC1=O)C(=O)N[C@@H](Cc1ccccc1)C(=O)N[C@@H](Cc1c[nH]c2ccccc12)C(=O)N1CCC[C@H]1C(=O)N[C@@H](Cc1ccccc1)C(=O)N[C@@H](Cc1ccc(O)cc1)C(=O)N[C@@H](Cc1c[nH]cn1)C(=O)N[C@H](C(=O)N[C@@H](C)C(N)=O)CSCCC3=O [BCY18220, A-(SEQ ID NO: 24)-A] (H-ACAEYCFWPFYHCA-NH2; linker 2-6-13 via TATA) 2000

Subsequent entry: C[C@H](N)C(=O)N[C@H]1CSCCC(=O)N2CN3CN(C2)C(=O)CCSC[C@H](NC(=O)[C@H](Cc2ccc(O)cc2)NC(=O)[C@H](Cc2ccc(O)cc2)NC(=O)[C@H](CO)NC1=O)C(=O)N[C@@H](Cc1ccccc1)C(=O)N[C@@H](Cc1c[nH]c2ccccc12)C(=O)N1CCC[C@H]1C(=O)N[C@@H](Cc1ccccc1)C(=O)N[C@@H](CCC(N)=O)C(=O)N[C@@H](CO)C(=O)N[C@H](C(=O)N[C@@H](C)C(N)=O)CSCCC3=O [BCY19766, A-(SEQ ID NO: 8)-A] (H-ACSYYCFWPFQSCA-NH2; linker 2-6-13 via TATA; C-terminus assumed) 1000

Subsequent entry: C[C@H](N)C(=O)N[C@H]1CSCCC(=O)N2CN3CN(C2)C(=O)CCSC[C@H](NC(=O)[C@H](Cc2ccc(O)cc2)NC(=O)[C@H](CC(N)=O)NC(=O)[C@H]([C@@H](C)O)NC1=O)C(=O)N[C@@H](Cc1ccccc1)C(=O)N[C@@H](Cc1c[nH]c2ccccc12)C(=O)N1CCC[C@H]1C(=O)N[C@@H](Cc1ccccc1)C(=O)N[C@@H](Cc1ccc(O)cc1)C(=O)N[C@@H](CO)C(=O)N[C@H](C(=O)N[C@@H](C)C(N)=O)CSCCC3=O [BCY19781, A-(SEQ ID NO: 20)-A] (H-ACTNYCFWPFYSCA-NH2; linker 2-6-13 via TATA) 1400
